In what follows, each item is paired with its pIC50 for UniProtKB O42275.
Sequence (O42275 24-633): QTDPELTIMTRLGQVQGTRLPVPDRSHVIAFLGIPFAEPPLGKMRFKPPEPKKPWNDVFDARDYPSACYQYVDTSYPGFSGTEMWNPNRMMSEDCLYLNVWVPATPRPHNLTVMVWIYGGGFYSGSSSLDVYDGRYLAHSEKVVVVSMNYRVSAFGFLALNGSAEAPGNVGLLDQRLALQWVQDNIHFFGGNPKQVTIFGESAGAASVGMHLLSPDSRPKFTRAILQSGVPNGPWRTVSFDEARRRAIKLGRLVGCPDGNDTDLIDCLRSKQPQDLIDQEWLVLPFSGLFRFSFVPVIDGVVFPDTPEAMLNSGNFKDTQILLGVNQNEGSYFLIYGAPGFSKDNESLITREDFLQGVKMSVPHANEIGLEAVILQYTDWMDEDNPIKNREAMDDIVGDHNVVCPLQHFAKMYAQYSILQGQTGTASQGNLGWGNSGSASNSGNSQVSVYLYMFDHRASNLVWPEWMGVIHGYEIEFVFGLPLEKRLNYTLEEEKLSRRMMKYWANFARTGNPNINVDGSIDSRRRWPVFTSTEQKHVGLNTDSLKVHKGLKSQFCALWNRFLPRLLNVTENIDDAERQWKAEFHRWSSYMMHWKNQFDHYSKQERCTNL
One number for each entry, as −log10 of the molar value.

Please state, for each entry, its recorded pIC50.
1. COc1ccc2nc3n(c(=O)c2c1)-c1ccccc1C(=O)N1CCC[C@@H]31
2. COc1ccc2c(c1)C(=O)N1CCC[C@H]1c1nc3ccc(OC)cc3c(=O)n1-2
3. C[C@@H]1NC(=O)c2cc(O)ccc2-n2c1nc1c(O)cccc1c2=O
4. C[C@@H]1NC(=O)c2ccccc2-n2c1nc1c(O)cccc1c2=O
5. C[C@@H]1NC(=O)c2cc(O)c(O)cc2-n2c1nc1ccccc1c2=O [2-hydroxycircumdatin C]
6. C[C@@H]1NC(=O)c2ccccc2-n2c1nc1ccccc1c2=O

[4.01, 5.62, 4.94, 4.80, 5.25, 5.00]
